# TESTED TARGET: Glutathione S-transferase omega-1 (Homo sapiens) (UniProt P78417)
# Sequence (P78417 whole entry, looked up): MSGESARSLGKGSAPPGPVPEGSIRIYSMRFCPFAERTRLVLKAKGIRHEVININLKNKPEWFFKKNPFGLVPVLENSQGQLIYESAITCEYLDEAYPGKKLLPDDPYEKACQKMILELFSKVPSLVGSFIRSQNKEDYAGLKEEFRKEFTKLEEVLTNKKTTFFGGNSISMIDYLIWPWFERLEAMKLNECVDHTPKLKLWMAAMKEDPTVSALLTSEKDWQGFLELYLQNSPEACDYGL
# METHOD: endogenous GSTO1 inhibitors in proteome, late-stage follow-up, cell lysate, MDA-MB-435 proteome, gel ABPP, SE-Rh, percent inhibition (AID 463098)
# RUN CONDITIONS: gel ABPP SE-Rh fluorescence, at 1 µM, active compounds read high
// label = t if inhibition is not less than 60%, otherwise f

Lookup: Assess whether reported inhibition for O=C(CCl)N(Cc1ccccc1)c1ccccc1 sits at 60% or higher.
Found: f

Lookup: Assess whether reported inhibition for CN(C)C(=O)CN1CCN(C(=O)CCl)CC1 sits at 60% or higher.
Found: f

Lookup: Assess whether reported inhibition for O=C(CCl)N(c1ccccc1)C1CCCCC1 sits at 60% or higher.
Found: f

Lookup: Assess whether reported inhibition for N#CCCN(C(=O)CCl)c1cccc(Cl)c1 sits at 60% or higher.
Found: t

Lookup: Assess whether reported inhibition for CC(=O)n1cc(N(C(=O)CCl)c2ccccc2)c2ccccc21 sits at 60% or higher.
Found: f

Lookup: Assess whether reported inhibition for COC(CN(C(=O)CCl)C(C(=O)NC1CCCCC1)c1ccccc1C)OC (centres undefined) sits at 60% or higher.
Found: f

Lookup: Assess whether reported inhibition for COc1cc2c(cc1OC)C(c1ccccc1)N(C(=O)CCl)CC2 (centres undefined) sits at 60% or higher.
Found: t

Lookup: Assess whether reported inhibition for CC(=O)n1cc(N(C(=O)CCl)c2ccc(Cl)cc2)c2ccccc21 sits at 60% or higher.
Found: f

Lookup: Assess whether reported inhibition for O=C(NC1CCCCC1)C(c1cccnc1)N(C(=O)CCl)c1ccc(F)cc1 (centres undefined) sits at 60% or higher.
Found: t

Lookup: Assess whether reported inhibition for COc1ccc(CN(CCC(c2ccccc2)c2ccc(OC(C)C)cc2)C(=O)CCl)cc1OC (centres undefined) sits at 60% or higher.
Found: t

Lookup: Assess whether reported inhibition for Cc1ccc(NC(=O)Cc2nc(CCl)cs2)cc1 sits at 60% or higher.
Found: f

Lookup: Assess whether reported inhibition for COc1ccc(C(CCN(Cc2ccc(OC)c(OC)c2)C(=O)CCl)c2ccccc2)cc1 (centres undefined) sits at 60% or higher.
Found: t

Lookup: Assess whether reported inhibition for COc1ccc(C(C(=O)NC2CCCCC2)N(C(=O)CCl)c2ccc(Cl)cc2)cc1 (centres undefined) sits at 60% or higher.
Found: t

Lookup: Assess whether reported inhibition for O=C(O)C1Cc2ccccc2CN1C(=O)CCl (centres undefined) sits at 60% or higher.
Found: t

Lookup: Assess whether reported inhibition for COc1ccc(N(C(=O)CCl)C(C(=O)NC2CCCCC2)c2cccnc2)cc1 (centres undefined) sits at 60% or higher.
Found: t

Lookup: Assess whether reported inhibition for CN(Cc1ccc(Cl)s1)C(=O)CCl sits at 60% or higher.
Found: t

Lookup: Assess whether reported inhibition for Cc1ccc2c(c1)c(=O)c1c3n2CCN(C(=O)CCl)C3CC1 (centres undefined) sits at 60% or higher.
Found: f

Lookup: Assess whether reported inhibition for COC(=O)CC1C(=O)NC2CCCCC2N1C(=O)CCl (centres undefined) sits at 60% or higher.
Found: f

Lookup: Assess whether reported inhibition for O=C(CCl)N1c2ccccc2SCC1c1ccccc1 (centres undefined) sits at 60% or higher.
Found: t

Lookup: Assess whether reported inhibition for COc1cccc(N(C(=O)CCl)C(C(=O)NCCc2ccccc2)c2cccs2)c1 (centres undefined) sits at 60% or higher.
Found: t

Lookup: Assess whether reported inhibition for O=S(=O)(c1ccc(Cl)cc1)N1CCC2(CC1)CO2 sits at 60% or higher.
Found: t

Lookup: Assess whether reported inhibition for COc1ccc(N(C(=O)CCl)C(C(=O)NCCc2ccccc2)c2cccs2)cc1 (centres undefined) sits at 60% or higher.
Found: t

Lookup: Assess whether reported inhibition for COc1cccc(-c2nc(CCl)cs2)c1 sits at 60% or higher.
Found: f

---

# TESTED TARGET: Glutathione S-transferase omega-1 (Homo sapiens)
# METHOD: endogenous GSTO1 inhibitors in proteome, late-stage follow-up, cell lysate, MDA-MB-435 proteome, gel ABPP, SE-Rh, percent inhibition (AID 463098)
# RUN CONDITIONS: gel ABPP SE-Rh fluorescence, at 1 µM
Activity calls are given as the source filed them.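 How the source made its calls: active means compounds that block at least 90% of GSTO1 probe labeling in cell lysate; inactive means the rest.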
Response enum: True (active), False (inactive)

Lookup: Test call for this compound, please: CCOC(=O)c1sc(N(Cc2ccccc2)C(=O)CCl)nc1C
Found: False

Lookup: Test call for this compound, please: CC(C)N(CC(=O)Nc1ccc(Cl)cc1C(F)(F)F)C(=O)CCl
Found: False

Lookup: Test call for this compound, please: COC(=O)C1Cc2ccccc2CN1C(=O)CCl (configuration not stated)
Found: False

Lookup: Test call for this compound, please: O=C(CCl)N1CCN(S(=O)(=O)c2ccc3ccccc3c2)CC1
Found: True

Lookup: Test call for this compound, please: CCCCCCCN(C(=O)CCl)c1cccc(C)c1
Found: False

Lookup: Test call for this compound, please: CCC1(CC)Cc2ccccc2-c2nc(CCl)[nH]c(=O)c21
Found: False

Lookup: Test call for this compound, please: CC1CCCN(C(=O)CCl)C1 (configuration not stated)
Found: False

Lookup: Test call for this compound, please: O=C(NC1CCCC1)C(c1ccc(F)cc1)N(Cc1ccccc1Cl)C(=O)CCl (configuration not stated)
Found: False

Lookup: Test call for this compound, please: O=c1cc(CCl)nc2sc3ccccc3n12
Found: False

Lookup: Test call for this compound, please: O=C(CCl)N(Cc1cc(=O)[nH]c2ccccc12)c1ccccc1
Found: False

Lookup: Test call for this compound, please: O=C(CCl)N1c2ccccc2OCC1c1ccccc1 (configuration not stated)
Found: False

Lookup: Test call for this compound, please: COc1ccc(N(C(=O)CCl)C(C(=O)NCCc2ccccc2)c2cccs2)cc1Cl (configuration not stated)
Found: True

---

# TESTED TARGET: Glutathione S-transferase omega-1 (Homo sapiens)
# METHOD: endogenous GSTO1 inhibitors in proteome, late-stage follow-up, cell lysate, MDA-MB-435 proteome, gel ABPP, SE-Rh, percent inhibition (AID 463098)
# RUN CONDITIONS: gel ABPP SE-Rh fluorescence, at 1 µM, active compounds read high
Could you please report measured inhibition for the items listed next?
Just the number in %, nothing appended.

Lookup: Query: inhibition; subject: Cc1nn(-c2ccccc2)c(Cl)c1CN(C(=O)CCl)c1cccc2ccccc12
Found: 34

Lookup: Query: inhibition; subject: CCCCCn1c(=O)c2ccccc2n2c(CCl)nnc12
Found: 73

Lookup: Query: inhibition; subject: COc1ccc(C(C(=O)NC2CCCCC2)N(C(=O)CCl)c2cccc(Cl)c2)cc1 (stereo not given)
Found: 100

Lookup: Query: inhibition; subject: Cc1cccc(N(Cc2cc(=O)[nH]c3ccccc23)C(=O)CCl)c1
Found: 82

Lookup: Query: inhibition; subject: O=c1cc(CCl)nc2scc(-c3ccccc3)n12
Found: 22

Lookup: Query: inhibition; subject: C=CCOc1ccccc1CN(C(=O)CCl)c1ccc2c(c1)OCO2
Found: 35

Lookup: Query: inhibition; subject: CCOC(=O)N1CCN(C(=O)CCl)CC1
Found: 22

Lookup: Query: inhibition; subject: O=C(NC1CCCCC1)C(c1cccnc1)N(C(=O)CCl)c1cccc(Cl)c1 (stereo not given)
Found: 100

Lookup: Query: inhibition; subject: CCCN(C(=O)CCl)C1=CCCCC1
Found: 0

Lookup: Query: inhibition; subject: CCc1ccc(-c2nc(CCl)cs2)cc1
Found: 40

Lookup: Query: inhibition; subject: COc1ccc(C(C(=O)NC2CCCCC2)N(C(=O)CCl)c2ccc(C)cc2)cc1 (stereo not given)
Found: 82

Lookup: Query: inhibition; subject: Cc1ccc(N(C(=O)CCl)C(C(=O)NC2CCCCC2)c2cccnc2)cc1C (stereo not given)
Found: 76

Lookup: Query: inhibition; subject: O=C(NCCc1ccccc1)C(c1cccs1)N(C(=O)CCl)c1ccc(Cl)cc1 (stereo not given)
Found: 88

Lookup: Query: inhibition; subject: Cc1cccc(CN2CCN(C(=O)CCl)CC2)c1
Found: 90

Lookup: Query: inhibition; subject: O=c1[nH]c(CCl)nc2cc(-c3ccc(F)cc3)sc12
Found: 100

Lookup: Query: inhibition; subject: COc1ccc(N(Cc2cc(=O)[nH]c3ccccc23)C(=O)CCl)cc1
Found: 38

Lookup: Query: inhibition; subject: CC1CCN(C(=O)CCl)CC1
Found: 53

Lookup: Query: inhibition; subject: CC(C)CCn1c(=O)c2ccccc2n2c(CCl)nnc12
Found: 87

Lookup: Query: inhibition; subject: O=C(CCl)N(CCc1ccccc1)CCc1ccccc1
Found: 57

Lookup: Query: inhibition; subject: CCOc1ccc(CN(C)C(=O)CCl)cc1
Found: 47

Lookup: Query: inhibition; subject: O=C(CCl)N(c1ccc(Cl)cc1)c1c[nH]c2ccccc12
Found: 23

Lookup: Query: inhibition; subject: O=C(CCl)N(C/C=C/c1ccccc1)c1ccc2c(c1)OCCO2
Found: 58

Lookup: Query: inhibition; subject: Cc1ccc2c(c1)c1c3n2CCN(C(=O)CCl)C3CCC1 (stereo not given)
Found: 96

Lookup: Query: inhibition; subject: Cc1ccc(N(Cc2cc(=O)[nH]c3ccccc23)C(=O)CCl)cc1
Found: 41

Lookup: Query: inhibition; subject: COc1cc2c(cc1OC)C(c1cc(Br)ccc1F)N(C(=O)CCl)CC2 (stereo not given)
Found: 80
